# test.target: Peroxisome proliferator-activated receptor alpha (Homo sapiens)
# Sequence (Q07869 whole entry): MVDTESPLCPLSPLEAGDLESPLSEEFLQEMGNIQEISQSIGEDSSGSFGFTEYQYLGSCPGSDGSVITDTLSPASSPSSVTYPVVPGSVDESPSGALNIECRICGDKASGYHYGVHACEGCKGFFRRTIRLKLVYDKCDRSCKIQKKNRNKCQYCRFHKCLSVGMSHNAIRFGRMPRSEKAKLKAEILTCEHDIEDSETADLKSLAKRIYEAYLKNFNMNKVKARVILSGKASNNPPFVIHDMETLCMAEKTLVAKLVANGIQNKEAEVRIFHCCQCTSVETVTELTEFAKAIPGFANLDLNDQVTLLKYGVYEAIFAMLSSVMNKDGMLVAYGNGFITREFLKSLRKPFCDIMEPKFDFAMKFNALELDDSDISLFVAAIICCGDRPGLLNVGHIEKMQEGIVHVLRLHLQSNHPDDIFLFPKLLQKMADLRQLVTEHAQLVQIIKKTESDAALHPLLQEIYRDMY
# test: Binding affinity to PPARalpha (unknown origin) using fluorescein-tagged dual PPARalpha/gamma activator by homogeneous fluorescence polarization binding assay
readout: IC50 (nM)

// solved cases for IC50 follow
Cc1oc(-c2ccccc2)nc1CCOc1cccc(C[C@H]2CN(C(=O)Oc3ccccc3)C[C@@H]2CC(=O)O)c1 (racemic) : 3090
Cc1oc(-c2ccccc2)nc1CCOc1ccc(C[C@@H]2CN(c3nccc(C(F)(F)F)n3)C[C@@H]2C(=O)O)cc1 (racemic) : 740
CCOC(=O)N1C[C@H](CC(=O)O)[C@H](c2cccc(OCCc3nc(-c4ccccc4)oc3C)c2)C1 (racemic) : 990
Cc1oc(-c2ccccc2)nc1CCOc1ccc(C[C@@H]2CN(C(=O)Oc3ccccc3)C[C@@H]2C(=O)O)cc1 (racemic) : 610
Cc1oc(-c2ccccc2)nc1CCOc1ccc(CC[C@@H]2CN(C(=O)Oc3ccccc3)C[C@@H]2C(=O)O)cc1 (racemic) : 480

1 = Cc1oc(-c2ccccc2)nc1CCOc1cccc(C[C@@H]2CN(C(=O)Oc3ccccc3)C[C@@H]2C(=O)O)c1
2 = Cc1oc(-c2ccccc2)nc1CCOc1cccc(C[C@H]2CN(C(=O)Oc3ccccc3)C[C@H]2C(=O)O)c1
3 = Cc1oc(-c2ccccc2)nc1CCOc1cccc(C[C@@H]2CN(c3nccc(C(F)(F)F)n3)C[C@@H]2C(=O)O)c1
4 = Cc1oc(-c2ccccc2)nc1CCOc1cccc(CC[C@@H]2CN(C(=O)Oc3ccccc3)C[C@@H]2C(=O)O)c1 (racemic)
5 = CCOC(=O)N1C[C@@H](CCc2ccc(OCCc3nc(-c4ccccc4)oc3C)cc2)[C@@H](C(=O)O)C1 (racemic)
Request: Could you please sort these 5 entries by IC50 from high to low? Put the labels in the order asked and list them.
Response: 5, 4, 2, 1, 3
(5: 3270 nM, 4: 1060 nM, 2: 660 nM, 1: 70 nM, 3: 20 nM)
